meta.source: paper PMC5540273

Tested on: p38-gamma
Construct: gene MAPK12
Details: concentration: 1 μM,replicates: in singlicate; n = 1;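 further: KINOMEscan kinase panel screen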
// reported %Inh per item
Answer in %, number only, no unit symbol.

Input: Provide %Inh value for the following compound: "Cc1ccc(Nc2ccnc(Nc3ccc4c(c3)CS(=O)(=O)C4)n2)cc1O.Cl"
Output: 23

Input: Provide %Inh value for the following compound: "O=C(Nc1n[nH]c2cc(-c3ccco3)ccc12)C1CC1"
Output: 26

Input: Provide %Inh value for the following compound: "CC(=O)Nc1nc2cnc(Nc3cc(NC(=O)c4cccc(CC(C)(C)C#N)c4)ccc3C)nc2s1"
Output: 74

Input: Provide %Inh value for the following compound: "Cc1n[nH]c2cc(Nc3ccnc(Nc4cccc(CN5CCOCC5)c4)n3)ccc12"
Output: 0

Input: Provide %Inh value for the following compound: "C[C@@H]1CCN(C(=O)N2CCCC2)C[C@@H]1N(C)c1ncnc2[nH]ccc12"
Output: 10

Input: Provide %Inh value for the following compound: "O=C(Nc1ccccc1)c1cccc(Oc2ccc3nccn3n2)c1"
Output: 3

Input: Provide %Inh value for the following compound: "C[C@@H]1CNc2c(sc3ccc4nc(-c5ccc(O)cc5)ccc4c23)C(=O)N1"
Output: 2

Input: Provide %Inh value for the following compound: "CS(=O)(=O)Nc1ccc(-c2ccnc3[nH]ccc23)cc1"
Output: 41

Now look at this one.
Input: Provide %Inh value for the following compound: "O=c1[nH]cc(-c2ccc(O)cc2)c2sc(-c3ccncc3)cc12"
Output: 26

====

// reported %Inh per item
Tested on: PRP4
Settings: concentration: 1 μM,replicates: in singlicate; n = 1
Answer in %, number only, no unit symbol.

Worked examples follow.
Input: Provide %Inh value for the following compound: "Cc1ccc(Nc2ccnc(Nc3ccc4c(c3)CS(=O)(=O)C4)n2)cc1O.Cl"
Output: 84

Input: Provide %Inh value for the following compound: "CN(c1cccc(CNc2nc(Nc3ccc4c(c3)CC(=O)N4)ncc2C(F)(F)F)c1)S(C)(=O)=O"
Output: 0

Input: Provide %Inh value for the following compound: "O=c1[nH]cc(-c2ccc(O)cc2)c2sc(-c3ccncc3)cc12"
Output: 22

Input: Provide %Inh value for the following compound: "CC(C)c1nc(-c2cccc(NS(=O)(=O)c3ccccc3)c2)c(-c2ccnc(Nc3ccc4c(c3)CN(C)CC4)n2)s1"
Output: 8

Input: Provide %Inh value for the following compound: "CN(c1ccc2c(c1)nc(NCc1ccc(F)cc1)n2C)c1ccnc(Nc2ccc(CS(C)(=O)=O)cc2)n1.Cl"
Output: 0

Next:
Input: Provide %Inh value for the following compound: "Cn1ccc2ncnc(Oc3ccc(NC(=O)Nc4cccc(C(F)(F)F)c4)c(Cl)c3)c21"
Output: 5

Input: Provide %Inh value for the following compound: "Cn1ccc2ncnc(Oc3ccc(NC(=O)Nc4ccnc(C(F)(F)F)c4)c(Cl)c3)c21"
Output: 14

Input: Provide %Inh value for the following compound: "CCn1c(-c2nonc2N)nc2cncc(Br)c21"
Output: 27

Input: Provide %Inh value for the following compound: "CS(=O)(=O)c1cccc(CNc2nc(Nc3ccc4c(c3)[C@@H]3C[C@@H]4CNC3=O)ncc2C(F)(F)F)c1"
Output: 10

Input: Provide %Inh value for the following compound: CC(C(=O)NC1CCN(c2ccnc(Nc3ccc(F)cc3)n2)C1)c1ccc(Cl)cc1 (stereo not shown)
Output: 0

Input: Provide %Inh value for the following compound: "Cl.Cl.NC[C@H](CC1CCCCC1)NC(=O)c1ccc(-c2ccnc3[nH]ccc23)s1"
Output: 81

Input: Provide %Inh value for the following compound: "Cc1cccc2c(-c3ccncc3)c(-c3ccc(F)cc3)nn12.Cl"
Output: 7

Input: Provide %Inh value for the following compound: "NC(=O)Nc1sc(-c2ccc(F)cc2)cc1C(N)=O"
Output: 75

Input: Provide %Inh value for the following compound: "COC(=O)c1cccc(NC(=O)NC2CCN(c3ccnc(NCc4ccc(F)cc4)n3)CC2)c1"
Output: 30

Input: Provide %Inh value for the following compound: COc1cccc(CNC(=O)NC2CCN(c3ccnc(Nc4cc(OC)c(OC)c(OC)c4)n3)C2)c1 (stereo not shown)
Output: 48

Input: Provide %Inh value for the following compound: "COc1cccc(OC)c1C(=O)Nc1cccc(-c2nn3ccccc3c2-c2ccnc(Nc3cccc(F)c3)n2)c1"
Output: 0

====

Tested on: AKT1
Conditions: concentration: 1 μM,replicates: in singlicate; n = 1
readout name: %Inh
Report field: quantity (unit follows the number).

Worked examples follow.
Input: Provide %Inh value for the following compound: "CCn1c(-c2nonc2N)nc2cncc(Br)c21"
Output: 0%

Input: Provide %Inh value for the following compound: "C[C@@H](Oc1cc(-n2cnc3ccc(-c4ccncc4)cc32)sc1C(N)=O)c1ccccc1Cl"
Output: 41%

Input: Provide %Inh value for the following compound: "CN(c1cccc(CNc2nc(Nc3ccc4c(c3)CC(=O)N4)ncc2C(F)(F)F)c1)S(C)(=O)=O"
Output: 0%

Now look at this one.
Input: Provide %Inh value for the following compound: "Cl.c1ccc(Oc2ccc(Nc3ccnc4cc(-c5ccc(CN6CCNCC6)o5)ccc34)cc2)nc1"
Output: 0%

====

System: CAMK4
Details: concentration: 1 μM,replicates: in singlicate; n = 1
// reported %Inh per item
Answer in %, number only, no unit symbol.

Input: Provide %Inh value for the following compound: "Cc1ccc(C(=O)Nc2ccc(Oc3ccc4nc(NC(=O)C5CC5)cn4c3)c(F)c2)c(=O)n1-c1ccccc1"
Output: 10

Next:
Input: Provide %Inh value for the following compound: COc1cc(Nc2nccc(N3CCC(NC(=O)c4cccc(C#N)c4)C3)n2)cc(OC)c1OC (centres unmarked) [GSK1379751]
Output: 0

Input: Provide %Inh value for the following compound: "CN(c1cccc(CNc2nc(Nc3ccc4c(c3)CC(=O)N4)ncc2C(F)(F)F)c1)S(C)(=O)=O"
Output: 0

Input: Provide %Inh value for the following compound: CCOC(=O)N1CCC(n2cnc(-c3ccc(F)cc3)c2-c2ccnc(N)n2)CC1 [SB-219952]
Output: 12

Input: Provide %Inh value for the following compound: Cc1n[nH]c2cc(Nc3ccnc(Nc4cccc(CN5CCOCC5)c4)n3)ccc12 [GW682569]
Output: 0

Input: Provide %Inh value for the following compound: FC(F)(F)c1cc(Br)cc(Nc2nccc(-c3cnn4ncccc34)n2)c1 [GW810578]
Output: 0

Input: Provide %Inh value for the following compound: O=c1[nH]cc(-c2ccc(O)cc2)c2sc(-c3ccncc3)cc12 [GSK1033723]
Output: 0

Input: Provide %Inh value for the following compound: C[C@@H](Oc1cc(-n2cnc3cc(-c4ccncc4)ccc32)sc1C(N)=O)c1ccccc1Cl [GSK479719]
Output: 0

====

Tested on: ADCK3
Construct: gene CABC1
Conditions: concentration: 1 μM,replicates: in singlicate; n = 1
// reported %Inh per item

Input: Provide %Inh value for the following compound: "COc1cccc(OC)c1C(=O)Nc1cccc(-c2nn3ccccc3c2-c2ccnc(Nc3cccc(F)c3)n2)c1"
Output: 0%

Next:
Input: Provide %Inh value for the following compound: "CN(c1ccccc1CNc1nc(Nc2ccc3c(c2)CC(=O)N3)ncc1C(F)(F)F)S(C)(=O)=O"
Output: 0%

Input: Provide %Inh value for the following compound: "OCCn1cc(-c2cnc3nnn(Cc4ccc5ncccc5c4)c3n2)cn1"
Output: 0%

Input: Provide %Inh value for the following compound: "CC(=O)Nc1nc2cnc(Nc3cc(NC(=O)c4cccc(CC(C)(C)C#N)c4)ccc3C)nc2s1"
Output: 3%

====

Tested on: PIM1
Settings: concentration: 1 μM,replicates: in singlicate; n = 1
MET means recorded %Inh is 20% or above; NOT MET means it is below 20%.

Input: Could you verify whether the entry "CC(=O)Nc1ccc(-c2cc3ncnc(SCC(=O)O)c3s2)cc1" shows %Inh of no less than 20%?
Output: NOT MET

Input: Could you verify whether the entry "Cc1cccc(-c2nc(Nc3ccncc3)c3sccc3n2)n1" shows %Inh of no less than 20%?
Output: MET

Input: Could you verify whether the entry CC(C(=O)NC1CCN(c2ccnc(Nc3ccc(F)cc3)n2)C1)c1ccc(Cl)cc1 (stereo not drawn) shows %Inh of no less than 20%?
Output: NOT MET

Input: Could you verify whether the entry "Cc1ccc(CC(=O)N2CCc3cc(-c4cn(C)c5ncnc(N)c45)ccc32)cc1" shows %Inh of no less than 20%?
Output: NOT MET

====

Tested on: CAMK1G
Details: concentration: 1 μM,replicates: in singlicate; n = 1
readout name: %Inh (%)
Answer in %, number only, no unit symbol.

Input: Provide %Inh value for the following molecule: "Cc1ccn2nc(-c3ccc(F)cc3)c(-c3ccncc3)c2c1.Cl"
Output: 0

Next:
Input: Provide %Inh value for the following molecule: "O=C(Nc1ccccc1)c1cccc(Oc2ccc3nccn3n2)c1"
Output: 0

Input: Provide %Inh value for the following molecule: N#Cc1cccc(C(=O)NC2CCN(c3ccnc(Nc4ccc(F)cc4)n3)C2)c1 (stereo not shown)
Output: 0

Input: Provide %Inh value for the following molecule: "Cn1ccc2ncnc(Oc3ccc(NC(=O)Nc4cncc(C(F)(F)F)c4)c(Cl)c3)c21"
Output: 0
